- Test description: Enhancement of bioavailability of drugs given to rats with bioenhancers (plasma drug level by HPLC)
- Test context: nutraceutical with Carum carvi extract and Zingiber officinale
Readout kind: % Enhancement in bioavailability, Carum carvi + Zingiber officinale, Extr. (Cc)

Examples with answers:
Smiles text | Recorded result
CSCC[C@H](N)C(=O)O | 30%
[K+] | Nil
Cc1ncc(CO)c(CO)c1O | Nil
[Zn] | Nil
CC1=C(/C=C/C(C)=C/C=C/C(C)=C/C=C/C=C(C)/C=C/C=C(C)/C=C/C2=C(C)CCCC2(C)C)C(C)(C)CCC1 | 63%
Cc1ncc(C[n+]2csc(CCO)c2C)c(N)n1 | 43%

Return reported % Enhancement in bioavailability, Carum carvi + Zingiber officinale, Extr. (Cc). Input molecule: [Ca+2] Nil

---

- Test description: Enhancement of bioavailability of drugs given to rats with bioenhancers (plasma drug level by HPLC)
- Test context: nutraceutical with Carum carvi Fraction No. 1 and piperine
Reported values of % Enhancement in bioavailability, Carum carvi + piperine, Frac 1. (Cc) for individual entries
Dear colleague, please return just the value in %, with no unit written.

Examples with answers:
Smiles text | Recorded result
CSCC[C@H](N)C(=O)O | 30
Cc1ncc(C[n+]2csc(CCO)c2C)c(N)n1 | 26

Next up:
Return reported % Enhancement in bioavailability, Carum carvi + piperine, Frac 1. (Cc). Input compound: CC1=C(/C=C/C(C)=C/C=C/C(C)=C/C=C/C=C(C)/C=C/C=C(C)/C=C/C2=C(C)CCCC2(C)C)C(C)(C)CCC1 59

---

Reported values of % Enhancement in bioavailability, Carum carvi + Zingiber officinale for individual entries
- Test description: Enhancement of bioavailability of drugs given to rats with bioenhancers (plasma drug level by HPLC)
- Test context: drug with Carum carvi bioenhancer and Zingiber officinale 35 mg/kg, drug dose as in row
Dear colleague, please return just the value in %, with no unit written.

Examples with answers:
Compound | Unit string | Recorded result
CC(=O)N1CCN(c2ccc(OCC3COC(Cn4ccnc4)(c4ccc(Cl)cc4Cl)O3)cc2)CC1 (centres unmarked) [Ketoconazole] | % | 96
CN(Cc1cnc2nc(N)nc(N)c2n1)c1ccc(C(=O)N[C@@H](CCC(=O)O)C(=O)O)cc1 [Methotrexate] | % | 102
CC(C)(C)NCC(O)c1ccc(O)c(CO)c1 (centres unmarked) [Salbutamol] | % | 80

Return reported % Enhancement in bioavailability, Carum carvi + Zingiber officinale. Input compound: C=CC1=C(C(=O)O)N2C(=O)[C@@H](NC(=O)/C(=N\O)c3csc(N)n3)[C@H]2SC1 [Cefidinir] 130

Return reported % Enhancement in bioavailability, Carum carvi + Zingiber officinale. Input compound: CS(=O)(=O)Nc1ccc([N+](=O)[O-])cc1Oc1ccccc1 [Nimesulide] 145

---

- Test description: Enhancement of bioavailability of drugs given to rats with bioenhancers (plasma drug level by HPLC)
- Test context: nutraceutical with Carum carvi extract 30 mg/kg
Readout kind: % Enhancement in bioavailability, Carum carvi (Cc) Extr. (%)
Dear colleague, please return just the value in %, with no unit written.

Examples with answers:
Molecule | Unit string | Recorded result
CSCC[C@H](N)C(=O)O [Methionine] | % | 20
Cc1ncc(C[n+]2csc(CCO)c2C)c(N)n1 [Vit B 1] | % | 37

Next up:
Return reported % Enhancement in bioavailability, Carum carvi (Cc) Extr.. Input molecule: CC1=C(/C=C/C(C)=C/C=C/C(C)=C/C=C/C=C(C)/C=C/C=C(C)/C=C/C2=C(C)CCCC2(C)C)C(C)(C)CCC1 [B-carotene] 47
